Target: HDAC6 human recombinant (Homo sapiens, UniProt Q9UBN7)
Construct: purchased Calbiochem 382180
Sequence (Q9UBN7 whole entry): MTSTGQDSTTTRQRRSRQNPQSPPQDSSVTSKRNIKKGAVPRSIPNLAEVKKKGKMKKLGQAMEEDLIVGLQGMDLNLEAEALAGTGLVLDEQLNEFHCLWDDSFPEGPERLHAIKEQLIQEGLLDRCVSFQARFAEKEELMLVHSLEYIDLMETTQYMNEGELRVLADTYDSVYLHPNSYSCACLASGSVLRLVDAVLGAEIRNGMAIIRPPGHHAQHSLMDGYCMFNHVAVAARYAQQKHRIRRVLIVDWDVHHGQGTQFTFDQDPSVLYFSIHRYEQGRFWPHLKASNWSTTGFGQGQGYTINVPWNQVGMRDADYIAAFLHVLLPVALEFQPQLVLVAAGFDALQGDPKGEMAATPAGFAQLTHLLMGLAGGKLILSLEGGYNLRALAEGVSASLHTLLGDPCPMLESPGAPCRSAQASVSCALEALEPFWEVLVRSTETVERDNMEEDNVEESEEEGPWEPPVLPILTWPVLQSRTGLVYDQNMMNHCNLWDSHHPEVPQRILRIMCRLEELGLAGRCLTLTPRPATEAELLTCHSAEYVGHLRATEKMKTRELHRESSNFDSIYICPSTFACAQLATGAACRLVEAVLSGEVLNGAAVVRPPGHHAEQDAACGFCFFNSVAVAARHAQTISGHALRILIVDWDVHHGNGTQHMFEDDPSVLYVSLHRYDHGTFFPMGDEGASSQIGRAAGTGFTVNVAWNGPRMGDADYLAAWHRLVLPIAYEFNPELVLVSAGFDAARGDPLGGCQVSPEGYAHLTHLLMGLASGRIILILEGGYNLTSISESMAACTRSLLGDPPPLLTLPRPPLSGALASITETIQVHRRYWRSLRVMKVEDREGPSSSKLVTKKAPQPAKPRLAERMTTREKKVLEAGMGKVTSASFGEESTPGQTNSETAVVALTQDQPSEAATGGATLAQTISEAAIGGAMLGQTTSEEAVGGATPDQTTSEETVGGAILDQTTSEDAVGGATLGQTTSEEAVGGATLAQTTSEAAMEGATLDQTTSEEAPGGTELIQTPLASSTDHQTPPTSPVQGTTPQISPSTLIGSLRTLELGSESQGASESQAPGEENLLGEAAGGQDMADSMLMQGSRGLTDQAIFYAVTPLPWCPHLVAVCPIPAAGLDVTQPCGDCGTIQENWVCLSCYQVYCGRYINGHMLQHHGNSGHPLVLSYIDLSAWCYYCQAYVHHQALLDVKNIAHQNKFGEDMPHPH
Assay: HDAC enzyme activity inhibition (in vitro), HDAC6 assay
Type: biochemical
Settings: samples at 0.1, 1, 10, 100 and 1000 nM; 37° C. 60 minutes; fluorescence Ex 390, Em 460; read-out: HDAC6 IC50
So I've got a bunch of compounds here, and I need their pIC50 values.
Scale: pIC50 equals -log10([C]), with [C] in mol/L.

Query :: Quick one: pIC50 for CC(=O)N1CCC(n2c(=O)n(Cc3ccc(-c4nnc(C(F)F)o4)cc3F)c3cc(F)ccc32)CC1 [Compound 75] ?
Result :: 7.34

Query :: // query: CN1CCC(n2c(=O)n(Cc3ccc(-c4nnc(C(F)F)o4)cc3F)c3ccccc32)C1 (stereo not shown) [Compound 20]
Result :: 6.55

Query :: // query: CS(=O)(=O)N1CCC(n2c(=O)n(Cc3ccc(-c4nnc(C(F)F)o4)cc3F)c3ccccc32)CC1 [Compound 18]
Result :: 6.57

Query :: // query: CCN1CCC(n2c(=O)n(Cc3ccc(-c4nnc(C(F)F)o4)cc3F)c3ccccc32)CC1 [Compound 14]
Result :: 6.68

Query :: // query: CN1CCC(n2c(=O)n(Cc3ccc(-c4nnc(C(F)F)o4)cn3)c3cc(F)c(Br)cc32)CC1 [Compound 149]
Result :: 7.40

Query :: // query: CN1CC[C@H](n2c(=O)n(Cc3ccc(-c4nnc(C(F)F)o4)cn3)c3cc(F)c(-c4cccc5[nH]ccc45)cc32)C1 [Compound 270]
Result :: 7.72

Query :: // query: CN1CCC(c2ccc3c(c2)n(C2CCN(C)CC2)c(=O)n3Cc2ccc(-c3nnc(C(F)F)o3)cn2)CC1 [Compound 199]
Result :: 6.76
